- Target Or System: T1, PDZRN3-1, first PDZ domain of PDZRN3 (human, UniProt Q9UPQ7 249-339)
- T1 sequence (looked up): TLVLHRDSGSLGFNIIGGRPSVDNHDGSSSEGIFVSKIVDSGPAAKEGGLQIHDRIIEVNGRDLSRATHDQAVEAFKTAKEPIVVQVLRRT
- Experiment Summary: fluorescence polarisation; direct: N-terminally fluorescein-labelled PBM peptide (tracer) with increasing amounts of MBP-PDZ; 384-well plates; triplicate; direct binding model (ProFit)
- Assay Conditions: both partners purified
Where no end group is shown, it is not given here.
Readout Label: pKd
// pKd is dimensionless: -log10 of concentration (M)

# input Endpoint output: pKd of fluorescein-RTRRETQL (source: synthetic peptide) [f16E6, fluorescein-labelled HPV16 E6 PBM peptide] . Value?
# output 5.97
